# TARGET_SYSTEM: Transient receptor potential cation channel subfamily V member 1 (Homo sapiens)
# PROTOCOL_DESCRIPTION: Agonist activity at human TRPV1 expressed in HEK293 cells assessed as increase in intracellular Ca2+ concentration by Fluo-4-AM dye based spectrofluorimetry
MEASURED_ENDPOINT: EC50 (µM)

Record excerpt, results attached:
{"columns": ["LINE_NOTATION", "EC50, µM"],
 "data": [
  ["COc1ccc(CC(=O)OC/C=C(\\C)CCC=C(C)C)cc1", 8],
  ["CC(C)=CCC/C(C)=C/CNC(=O)Nc1ccc(C(C)(C)C)cc1", 8.7]
]}

(I) CC(C)=CCC/C(C)=C\CNC(=O)NC1CCCCC1
(II) CC(C)=CCC/C(C)=C\CNC(=O)Nc1cccc(Cl)c1
(III) CC(C)=CCC/C(C)=C/COC(=O)CCc1ccccc1
(IV) CC(C)=CCC/C(C)=C/CNC(=O)Cc1ccc(Cl)cc1
(Q) Place the items in sequence of falling EC50. As an answer, provide the labels arranged in the order called for.
(A) I, III, II, IV
(I: 8.9 µM, III: 4 µM, II: 1.7 µM, IV: 1.1 µM)

====

# TARGET_SYSTEM: Transient receptor potential cation channel subfamily V member 1 (Homo sapiens, UniProt Q8NER1)
# Sequence (Q8NER1 whole entry): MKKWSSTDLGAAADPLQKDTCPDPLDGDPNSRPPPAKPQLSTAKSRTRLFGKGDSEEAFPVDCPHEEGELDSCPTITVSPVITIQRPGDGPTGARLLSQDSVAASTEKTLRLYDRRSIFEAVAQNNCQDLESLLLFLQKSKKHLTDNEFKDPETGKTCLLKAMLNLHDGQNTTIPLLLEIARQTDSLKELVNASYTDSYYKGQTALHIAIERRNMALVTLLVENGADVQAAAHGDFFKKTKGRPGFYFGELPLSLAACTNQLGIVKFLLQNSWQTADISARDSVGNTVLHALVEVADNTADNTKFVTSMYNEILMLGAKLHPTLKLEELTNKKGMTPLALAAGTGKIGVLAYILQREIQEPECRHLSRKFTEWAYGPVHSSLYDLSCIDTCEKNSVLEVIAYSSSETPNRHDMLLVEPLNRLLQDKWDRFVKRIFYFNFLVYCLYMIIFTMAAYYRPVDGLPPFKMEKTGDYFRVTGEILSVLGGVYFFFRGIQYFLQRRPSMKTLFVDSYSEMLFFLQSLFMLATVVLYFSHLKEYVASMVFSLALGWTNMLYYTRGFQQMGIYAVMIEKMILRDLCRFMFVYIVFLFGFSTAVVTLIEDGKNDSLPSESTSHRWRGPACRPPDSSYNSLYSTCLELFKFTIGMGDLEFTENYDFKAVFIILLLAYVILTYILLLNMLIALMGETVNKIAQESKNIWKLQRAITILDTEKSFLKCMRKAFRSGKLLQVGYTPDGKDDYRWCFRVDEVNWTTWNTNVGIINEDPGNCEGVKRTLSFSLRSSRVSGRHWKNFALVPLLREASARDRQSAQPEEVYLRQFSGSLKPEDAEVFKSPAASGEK
# PROTOCOL_DESCRIPTION: Agonist activity at human TRPV1 expressed in HEK293 cells assessed as increase in intracellular Ca2+ concentration by Fluo-4-AM dye based spectrofluorimetry relative to ionomycin
# Format: cell-based
MEASURED_ENDPOINT: Efficacy

Record excerpt, results attached:
{"columns": ["COMPOUND", "MEASURED_ENDPOINT", "REPORTED_VALUE"],
 "data": [
  ["CC(C)=CCC/C(C)=C\\COC(=O)CCc1ccccc1", "Efficacy", "< 10%"],
  ["CC(=O)OCCC(C)CCC=C(C)C (stereo unspecified) [CITRONELLYL ACETATE]", "Efficacy", "< 10%"],
  ["CC(C)=CCCC(C)CCOC(=O)Cc1ccc(C)cc1 (stereo unspecified)", "Efficacy", "< 10%"]
]}

(Q) Consider the compound CC(C)=CCC/C(C)=C\CNC(=O)Oc1ccc(C(C)(C)C)cc1 and give its measured Efficacy.
(A) 15.8%

(Q) Same again, this time with CC(C)=CCC/C(C)=C\CNC(=O)CCc1ccccc1
(A) < 10%

(Q) Same again, this time with CC(C)=CCC/C(C)=C/COC(=O)c1cc(C(F)(F)F)cc(C(F)(F)F)c1
(A) < 10%

(Q) Same again, this time with CC(C)=CCC/C(C)=C\COC(=O)c1ccc(C#N)cc1
(A) < 10%

(Q) Same again, this time with CC(C)=CCC/C(C)=C/CNC(=O)NC1CCCCC1
(A) 36%

(Q) Same again, this time with CC(C)=CCC/C(C)=C\CNC(=O)NC1CCCCC1
(A) 50.1%

(Q) Same again, this time with CC(=O)OC/C=C(\C)CCC=C(C)C [GERANYL ACETATE]
(A) < 10%

(Q) Same again, this time with CC(C)=CCC/C(C)=C/CNC(=O)Oc1ccc(C(C)(C)C)cc1
(A) 22.4%

====

# TARGET_SYSTEM: UniProt Q8R455
# PROTOCOL_DESCRIPTION: Antagonist activity against rat TRPM8 expressed in HEK293 cells assessed as inhibition of icilin-induced increase in intracellular Ca2+ concentration by Fluo-4-AM dye based spectrofluorimetry
pIC50: −log10 of the molar value.
MEASURED_ENDPOINT: pIC50

Record excerpt, results attached:
{"columns": ["MOLECULE", "pIC50"],
 "data": [
  ["CC(C)=CCC/C(C)=C\\CNC(=O)NC1CCCCC1", 4.52],
  ["CC(C)=CCCC(C)CCOC(=O)Cc1ccc(Cl)cc1 (centres undefined)", 6.08],
  ["CC(C)=CCC/C(C)=C\\CNC(=O)Cc1ccc(Cl)cc1", 5.66]
]}

(P) CC(C)=CCCC(C)CCOC(=O)Cc1ccc(C)cc1 (centres undefined)
(Q) CC(C)=CCC/C(C)=C\COC(=O)c1ccc(C)cc1
(R) CC(C)=CCC/C(C)=C/CNC(=O)CCc1ccccc1
(S) CC(C)=CCC/C(C)=C\COC(=O)Cc1ccc(C)cc1
(Q) Ascending sort, pIC50. As an answer, provide the labels arranged in the order called for.
(A) R, P, Q, S
(R: 5.26, P: 5.62, Q: 5.92, S: 6.55)

====

# TARGET_SYSTEM: Transient receptor potential cation channel subfamily M member 8 (Rattus norvegicus) (UniProt Q8R455)
# Sequence (Q8R455 whole entry, looked up): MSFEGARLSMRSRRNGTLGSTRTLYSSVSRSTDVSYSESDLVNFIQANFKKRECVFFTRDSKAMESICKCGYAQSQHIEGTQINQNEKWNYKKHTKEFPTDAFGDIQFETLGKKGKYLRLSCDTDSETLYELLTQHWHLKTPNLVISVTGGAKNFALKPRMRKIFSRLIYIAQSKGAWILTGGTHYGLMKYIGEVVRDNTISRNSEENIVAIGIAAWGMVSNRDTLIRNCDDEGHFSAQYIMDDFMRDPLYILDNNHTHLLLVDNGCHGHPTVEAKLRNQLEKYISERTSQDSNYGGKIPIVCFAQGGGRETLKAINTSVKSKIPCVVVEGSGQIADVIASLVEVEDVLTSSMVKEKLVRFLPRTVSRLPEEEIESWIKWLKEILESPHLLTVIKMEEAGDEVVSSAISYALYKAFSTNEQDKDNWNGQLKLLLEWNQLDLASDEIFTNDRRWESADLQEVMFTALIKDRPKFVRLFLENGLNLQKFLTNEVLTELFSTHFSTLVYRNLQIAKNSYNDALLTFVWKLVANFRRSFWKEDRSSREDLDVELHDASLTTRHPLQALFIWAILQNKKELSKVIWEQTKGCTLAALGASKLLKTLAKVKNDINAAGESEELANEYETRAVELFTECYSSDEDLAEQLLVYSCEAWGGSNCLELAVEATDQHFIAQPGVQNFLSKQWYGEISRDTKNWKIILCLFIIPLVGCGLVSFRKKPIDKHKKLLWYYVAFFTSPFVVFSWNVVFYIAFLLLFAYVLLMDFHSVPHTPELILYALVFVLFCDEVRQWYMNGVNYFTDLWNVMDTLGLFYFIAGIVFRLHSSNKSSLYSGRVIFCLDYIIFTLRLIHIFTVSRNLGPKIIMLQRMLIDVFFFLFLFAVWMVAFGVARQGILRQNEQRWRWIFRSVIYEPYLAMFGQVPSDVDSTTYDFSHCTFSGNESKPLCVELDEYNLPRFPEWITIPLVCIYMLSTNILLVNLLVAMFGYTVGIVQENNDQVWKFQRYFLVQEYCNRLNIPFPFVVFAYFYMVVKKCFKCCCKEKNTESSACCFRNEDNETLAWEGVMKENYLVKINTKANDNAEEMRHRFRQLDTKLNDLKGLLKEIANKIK
# PROTOCOL_DESCRIPTION: Agonist activity at rat TRPM8 expressed in HEK293 cells assessed as increase in intracellular Ca2+ concentration by Fluo-4-AM dye based spectrofluorimetry relative to ionomycin
# Assay type: cell-based
Efficacy listing for selected compounds.

{"columns": ["COMPOUND", "Efficacy"],
 "data": [
  ["CC(C)=CCC/C(C)=C/CNC(=O)Oc1ccc(C(C)(C)C)cc1", "< 10%"]
]}

(Q) Consider the compound CC(C)=CCC/C(C)=C/COC(=O)Cc1ccc(Cl)cc1 and give its measured Efficacy.
(A) < 10%

(Q) Same again, this time with CC(=O)OC/C=C(\C)CCC=C(C)C [GERANYL ACETATE]
(A) < 10%

====

# TARGET_SYSTEM: Transient receptor potential cation channel subfamily M member 8 (Homo sapiens)
# Sequence (Q7Z2W7 whole entry): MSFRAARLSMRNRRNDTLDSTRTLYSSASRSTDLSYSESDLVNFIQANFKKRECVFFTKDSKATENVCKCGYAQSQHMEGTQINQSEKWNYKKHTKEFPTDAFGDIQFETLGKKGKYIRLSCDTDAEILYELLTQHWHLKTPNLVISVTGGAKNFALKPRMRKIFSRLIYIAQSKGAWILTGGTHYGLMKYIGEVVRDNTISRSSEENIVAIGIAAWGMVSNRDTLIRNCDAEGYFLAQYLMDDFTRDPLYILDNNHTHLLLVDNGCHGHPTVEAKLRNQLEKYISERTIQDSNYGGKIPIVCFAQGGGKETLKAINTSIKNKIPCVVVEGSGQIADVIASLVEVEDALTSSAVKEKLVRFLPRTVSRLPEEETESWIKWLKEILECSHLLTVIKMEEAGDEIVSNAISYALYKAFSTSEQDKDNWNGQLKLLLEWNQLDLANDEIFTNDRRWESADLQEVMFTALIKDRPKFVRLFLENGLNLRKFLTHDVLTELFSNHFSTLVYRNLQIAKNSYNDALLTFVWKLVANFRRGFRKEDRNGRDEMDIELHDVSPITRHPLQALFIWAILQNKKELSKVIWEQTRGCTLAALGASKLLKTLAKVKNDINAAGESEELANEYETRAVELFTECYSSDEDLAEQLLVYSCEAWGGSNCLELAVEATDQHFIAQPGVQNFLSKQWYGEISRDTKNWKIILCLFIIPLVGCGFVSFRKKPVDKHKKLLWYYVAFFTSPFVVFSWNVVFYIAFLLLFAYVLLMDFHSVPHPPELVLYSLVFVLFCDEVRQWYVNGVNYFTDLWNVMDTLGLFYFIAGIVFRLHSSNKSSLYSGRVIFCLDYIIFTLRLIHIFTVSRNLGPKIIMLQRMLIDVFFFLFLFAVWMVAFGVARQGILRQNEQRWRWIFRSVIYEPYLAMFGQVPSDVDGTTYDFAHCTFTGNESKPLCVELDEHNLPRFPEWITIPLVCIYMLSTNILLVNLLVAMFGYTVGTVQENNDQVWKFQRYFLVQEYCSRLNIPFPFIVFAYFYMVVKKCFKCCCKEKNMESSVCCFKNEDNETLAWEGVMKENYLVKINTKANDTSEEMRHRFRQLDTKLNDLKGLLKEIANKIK
# PROTOCOL_DESCRIPTION: Agonist activity at TRPM8 (unknown origin)
MEASURED_ENDPOINT: pEC50
In simple prose, pEC50 is minus the logarithm base ten of a concentration in moles per litre.

(Q) Give recorded pEC50 with Transient receptor potential cation channel subfamily M member 8 (Homo sapiens) for the following compound: CC(C)=CCC/C(C)=C/CO
(A) 2.23

====

# TARGET_SYSTEM: Transient receptor potential cation channel subfamily A member 1 (Rattus norvegicus)
# Sequence (Q6RI86 whole entry): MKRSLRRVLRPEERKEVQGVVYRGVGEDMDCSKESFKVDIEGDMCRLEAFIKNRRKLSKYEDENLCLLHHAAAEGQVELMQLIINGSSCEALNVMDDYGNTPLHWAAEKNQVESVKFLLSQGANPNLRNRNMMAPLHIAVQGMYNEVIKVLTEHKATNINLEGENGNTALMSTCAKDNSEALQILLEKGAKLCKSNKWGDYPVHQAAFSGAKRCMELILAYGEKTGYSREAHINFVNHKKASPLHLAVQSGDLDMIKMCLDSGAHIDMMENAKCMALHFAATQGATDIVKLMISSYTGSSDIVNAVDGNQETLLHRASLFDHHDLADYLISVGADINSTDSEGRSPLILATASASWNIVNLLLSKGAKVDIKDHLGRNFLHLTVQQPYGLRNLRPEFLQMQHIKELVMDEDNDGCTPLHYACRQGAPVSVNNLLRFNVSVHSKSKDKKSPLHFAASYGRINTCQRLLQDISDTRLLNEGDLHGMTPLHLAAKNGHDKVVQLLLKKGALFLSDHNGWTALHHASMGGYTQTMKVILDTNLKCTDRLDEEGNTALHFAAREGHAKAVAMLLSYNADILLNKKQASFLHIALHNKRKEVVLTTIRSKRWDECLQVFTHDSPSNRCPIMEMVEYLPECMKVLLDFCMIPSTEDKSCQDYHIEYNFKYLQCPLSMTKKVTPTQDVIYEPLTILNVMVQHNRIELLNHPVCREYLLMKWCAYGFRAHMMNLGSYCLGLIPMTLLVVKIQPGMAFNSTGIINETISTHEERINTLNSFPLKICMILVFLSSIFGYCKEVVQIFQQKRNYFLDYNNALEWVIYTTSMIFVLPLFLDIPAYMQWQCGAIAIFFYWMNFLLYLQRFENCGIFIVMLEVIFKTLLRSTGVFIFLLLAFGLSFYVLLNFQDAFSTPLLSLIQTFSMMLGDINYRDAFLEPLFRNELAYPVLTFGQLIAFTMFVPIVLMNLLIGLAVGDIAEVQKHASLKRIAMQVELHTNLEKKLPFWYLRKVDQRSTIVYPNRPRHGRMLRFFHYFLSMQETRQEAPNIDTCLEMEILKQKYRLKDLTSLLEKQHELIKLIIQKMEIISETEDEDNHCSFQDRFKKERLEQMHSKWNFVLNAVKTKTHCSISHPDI
# PROTOCOL_DESCRIPTION: Agonist activity at rat TRPA1 expressed in HEK293 cells assessed as increase in intracellular Ca2+ concentration by Fluo-4-AM dye based spectrofluorimetry
MEASURED_ENDPOINT: EC50 (nM)

(a) CC(=O)OCCC(C)CCC=C(C)C (stereo not given) [CITRONELLYL ACETATE]
(b) CC(=O)OC/C=C(\C)CCC=C(C)C [GERANYL ACETATE]
(Q) Please tell me which of the two, a or b , has the higher reported EC50 value. Identify your selection by its label.
(A) b

====

# TARGET_SYSTEM: Transient receptor potential cation channel subfamily A member 1 (Rattus norvegicus)
# PROTOCOL_DESCRIPTION: Agonist activity at rat TRPA1 expressed in HEK293 cells assessed as increase in intracellular Ca2+ concentration by Fluo-4-AM dye based spectrofluorimetry
pEC50: −log10 of the molar value.
MEASURED_ENDPOINT: pEC50

Record excerpt, results attached:
{"columns": ["MOLECULE", "TARGET_SYSTEM", "MEASURED_ENDPOINT", "REPORTED_VALUE"],
 "data": [
  ["CC(C)=CCC/C(C)=C/CNC(=O)Oc1ccc(C(C)(C)C)cc1", "Transient receptor potential cation channel subfamily A member 1 (Rattus norvegicus)", "pEC50", 7.35],
  ["CC(C)=CCC/C(C)=C/COC(=O)c1cc(C(F)(F)F)cc(C(F)(F)F)c1", "Transient receptor potential cation channel subfamily A member 1 (Rattus norvegicus)", "pEC50", 4.92],
  ["CC(C)=CCC/C(C)=C\\COC(=O)c1cccc(C)c1", "Transient receptor potential cation channel subfamily A member 1 (Rattus norvegicus)", "pEC50", 6.85],
  ["CC(C)=CCC/C(C)=C\\CO", "Transient receptor potential cation channel subfamily A member 1 (Rattus norvegicus)", "pEC50", 4.93],
  ["CC(C)=CCC/C(C)=C\\CNC(=O)Nc1cccc(Cl)c1", "Transient receptor potential cation channel subfamily A member 1 (Rattus norvegicus)", "pEC50", 6.37]
]}

(P) CC(C)=CCC/C(C)=C\COC(=O)c1ccc(C#N)cc1
(Q) CC(C)=CCC/C(C)=C/CNC(=O)Nc1cccc(Cl)c1
(R) CC(=O)OC/C=C(/C)CCC=C(C)C [NERYL ACETATE]
(S) CC(C)=CCC/C(C)=C\CNC(=O)CCc1ccccc1
(Q) Ascending sort, pEC50. As an answer, provide the labels arranged in the order called for.
(A) R, S, Q, P
(R: 4.88, S: 5.18, Q: 6.21, P: 6.59)

====

# TARGET_SYSTEM: UniProt Q6RI86
# PROTOCOL_DESCRIPTION: Antagonist activity against rat TRPA1 expressed in HEK293 cells assessed as inhibition of AITC-induced increase in intracellular Ca2+ concentration by Fluo-4-AM dye based spectrofluorimetry
MEASURED_ENDPOINT: IC50 (nM)

Record excerpt, results attached:
{"columns": ["COMPOUND", "TARGET_SYSTEM", "IC50 (nM)"],
 "data": [
  ["CC(C)=CCC/C(C)=C/COC(=O)c1cccc(C)c1", "UniProt Q6RI86", 1400],
  ["CC(C)=CCCC(C)CCOC(=O)c1ccc(C)cc1 (stereo not drawn)", "UniProt Q6RI86", 870]
]}

(a) CC(C)=CCC/C(C)=C/CNC(=O)Nc1cccc(Cl)c1
(b) CC(C)=CCC/C(C)=C\CNC(=O)NC1CCCCC1
(Q) Please tell me which of the two, a or b , has the higher reported IC50 value. Identify your selection by its label.
(A) b

(I) CC(C)=CCC/C(C)=C/CNC(=O)Nc1ccc(C(C)(C)C)cc1
(II) CC(C)=CCC/C(C)=C/CNC(=O)Cc1ccc(Cl)cc1
(Q) Please tell me which of the two, I or II , has the higher reported IC50 value. Identify your selection by its label.
(A) II
